Parameter viability, T/C: see the listing below.
System: OVCAR-5 complex spheroid (HUVEC/MSC), viability % T/C
PROTOCOL SUMMARY: Anticancer human tumor OVCAR-5 cell line growth inhibition [Asc]
CONDITION SUMMARY: second compound 0.3 µM; first compound 10 µM; stronger effect = lower value
Text: Multicellular complex tumor spheroid response to apoptosis pathway targeting inhibitors Alrizomadlin, Pelcitoclax, and Dasminapant in combination with a variety of drugs and investigational agents in selected tumor cell lines […] Compounds. […] If the clinical Cmax for an agent had not been determined, the highest concentration tested was 10 microM. […]
Lab book: enter the figure in %, no units written.

// below: answered compounds
{"COMPOUND": "C=C(F)C(=O)N1CCN(c2nc(OCC3CCCN3C)nc3c2CCN(c2cccc4cccc(Cl)c24)C3)CC1CC#N (centres undefined) + CCN1C(C(=O)NC23CCC(C(=O)O)(CC2)CC3)C(c2cccc(Cl)c2F)C2(C(=O)Nc3cc(Cl)ccc32)C12CCCCC2", "viability, T/C, %": 0.2}
{"COMPOUND": "O=C(c1cc(Cc2n[nH]c(=O)c3ccccc23)ccc1F)N1CCN(C(=O)C2CC2)CC1 + CCN1C(C(=O)NC23CCC(C(=O)O)(CC2)CC3)C(c2cccc(Cl)c2F)C2(C(=O)Nc3cc(Cl)ccc32)C12CCCCC2", "viability, T/C, %": 82.7}
{"COMPOUND": "C#Cc1c(F)ccc2cc(O)cc(-c3ncc4c(N5CC6CCC(C5)N6)nc(OCC56CCCN5CC(F)C6)nc4c3F)c12 (centres undefined) + CCN1C(C(=O)NC23CCC(C(=O)O)(CC2)CC3)C(c2cccc(Cl)c2F)C2(C(=O)Nc3cc(Cl)ccc32)C12CCCCC2", "viability, T/C, %": 42.4}

Input: Report viability, T/C under test system OVCAR-5 complex spheroid (HUVEC/MSC), viability % T/C for C=CC(=O)N1CCN(c2nc(=O)n(-c3c(C)ccnc3C(C)C)c3nc(-c4c(O)cccc4F)c(F)cc23)C(C)C1 (centres undefined) + CCN1C(C(=O)NC23CCC(C(=O)O)(CC2)CC3)C(c2cccc(Cl)c2F)C2(C(=O)Nc3cc(Cl)ccc32)C12CCCCC2 .
Output: 116

---

Tested on: OVCAR-5 complex spheroid (HUVEC/MSC), viability % T/C
PROTOCOL SUMMARY: Anticancer human tumor OVCAR-5 cell line growth inhibition [Asc];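 further: spheroids exposed to agents for 7 days before readout; 100% = DMSO vehicle-treated wells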
CONDITION SUMMARY: second compound 0.949 µM; first compound 0.316 µM; stronger effect = lower value
Parameter viability, T/C: see the listing below.
Lab book: enter the figure in %, no units written.

{"COMPOUND": "C=CC(=O)N1CCN(c2nc(=O)n(-c3c(C)ccnc3C(C)C)c3nc(-c4c(O)cccc4F)c(F)cc23)C(C)C1 (configuration not stated) + CCN1C(C(=O)NC23CCC(C(=O)O)(CC2)CC3)C(c2cccc(Cl)c2F)C2(C(=O)Nc3cc(Cl)ccc32)C12CCCCC2", "viability, T/C (%)": 102}

Now consider a different compound.
Input: Dear colleague, please send me the reported viability, T/C for O=C(c1cc(Cc2n[nH]c(=O)c3ccccc23)ccc1F)N1CCN(C(=O)C2CC2)CC1 + CCN1C(C(=O)NC23CCC(C(=O)O)(CC2)CC3)C(c2cccc(Cl)c2F)C2(C(=O)Nc3cc(Cl)ccc32)C12CCCCC2 when you can.
Output: 102

---

Tested on: OVCAR-5 complex spheroid (HUVEC/MSC), viability % T/C
PROTOCOL SUMMARY: Anticancer human tumor OVCAR-5 cell line growth inhibition [Asc];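 further: spheroids exposed to agents for 7 days before readout; 100% = DMSO vehicle-treated wells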
CONDITION SUMMARY: second compound 1 µM; first compound 0.316 µM; stronger effect = lower value
READOUT LABEL: viability, T/C (%)
Lab book: enter the figure in %, no units written.

// below: answered compounds
{"COMPOUND": "C#Cc1c(F)ccc2cc(O)cc(-c3ncc4c(N5CC6CCC(C5)N6)nc(OCC56CCCN5CC(F)C6)nc4c3F)c12 (stereo not drawn) + CNC(C)C(=O)NC1CN(S(=O)(=O)c2cccc(S(=O)(=O)N3CCC4CCC(C(=O)NC(c5ccccc5)c5ccccc5)N4C(=O)C(NC(=O)C(C)NC)C3)c2)CCC2CCC(C(=O)NC(c3ccccc3)c3ccccc3)N2C1=O", "DATA VALUE": 76.1}
{"COMPOUND": "COc1c(OCCCN2CCOCC2)ccc2c3n(c(=NC(=O)c4cnc(N)nc4)nc12)CCN3 + CNC(C)C(=O)NC1CN(S(=O)(=O)c2cccc(S(=O)(=O)N3CCC4CCC(C(=O)NC(c5ccccc5)c5ccccc5)N4C(=O)C(NC(=O)C(C)NC)C3)c2)CCC2CCC(C(=O)NC(c3ccccc3)c3ccccc3)N2C1=O", "DATA VALUE": 12.3}

Now consider a different compound.
Input: Dear colleague, please send me the reported viability, T/C for O=C(c1ccc(F)c(F)c1Nc1ccc(I)cc1F)N1CC(O)([C@@H]2CCCCN2)C1 + Cc1c(S(C)(=O)=O)c(-c2cc(F)cc(N3CCN(c4ccc(NS(=O)(=O)c5ccc(NC(CCN6CCC(C(=O)OCCCP(=O)(O)O)CC6)CSc6ccccc6)c(S(=O)(=O)C(F)(F)F)c5)cc4)CC3)c2)c(-c2ccc(Cl)cc2)n1C(C)C when you can.
Output: 26.9

---

Test system: OVCAR-5 complex spheroid (HUVEC/MSC), viability % T/C
PROTOCOL SUMMARY: Anticancer human tumor OVCAR-5 cell line growth inhibition [Asc];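 further: spheroids exposed to agents for 7 days before readout; 100% = DMSO vehicle-treated wells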
CONDITION SUMMARY: second compound 0.0316 µM; first compound 0.1 µM; stronger effect = lower value
READOUT LABEL: viability, T/C (%)
Lab book: enter the figure in %, no units written.

Input: Dear colleague, please send me the reported viability, T/C for NC1CCC(NC2CC2c2ccccc2)CC1 (stereo unspecified) + CNC(C)C(=O)NC1CN(S(=O)(=O)c2cccc(S(=O)(=O)N3CCC4CCC(C(=O)NC(c5ccccc5)c5ccccc5)N4C(=O)C(NC(=O)C(C)NC)C3)c2)CCC2CCC(C(=O)NC(c3ccccc3)c3ccccc3)N2C1=O when you can.
Output: 66.9

---

System: OVCAR-5 complex spheroid (HUVEC/MSC), viability % T/C
PROTOCOL SUMMARY: Anticancer human tumor OVCAR-5 cell line growth inhibition [Asc];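 further: spheroids exposed to agents for 7 days before readout; 100% = DMSO vehicle-treated wells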
CONDITION SUMMARY: second compound 0.1 µM; first compound 0.316 µM; stronger effect = lower value
Field: label. Allowed values: met (viability, T/C < 80%) or not met (viability, T/C >= 80%).

Solved cases below.
{"COMPOUND": "O=C(c1ccc(F)c(F)c1Nc1ccc(I)cc1F)N1CC(O)([C@@H]2CCCCN2)C1 + CNC(C)C(=O)NC1CN(S(=O)(=O)c2cccc(S(=O)(=O)N3CCC4CCC(C(=O)NC(c5ccccc5)c5ccccc5)N4C(=O)C(NC(=O)C(C)NC)C3)c2)CCC2CCC(C(=O)NC(c3ccccc3)c3ccccc3)N2C1=O", "EXPERIMENTAL SYSTEM": "OVCAR-5 complex spheroid (HUVEC/MSC), viability % T/C", "LABEL": "met"}
{"COMPOUND": "C=CC(=O)N1CCN(c2nc(=O)n(-c3c(C)ccnc3C(C)C)c3nc(-c4c(O)cccc4F)c(F)cc23)C(C)C1 (centres undefined) + Cc1c(S(C)(=O)=O)c(-c2cc(F)cc(N3CCN(c4ccc(NS(=O)(=O)c5ccc(NC(CCN6CCC(C(=O)OCCCP(=O)(O)O)CC6)CSc6ccccc6)c(S(=O)(=O)C(F)(F)F)c5)cc4)CC3)c2)c(-c2ccc(Cl)cc2)n1C(C)C", "EXPERIMENTAL SYSTEM": "OVCAR-5 complex spheroid (HUVEC/MSC), viability % T/C", "LABEL": "not met"}
{"COMPOUND": "O=C(c1ccc(F)c(F)c1Nc1ccc(I)cc1F)N1CC(O)([C@@H]2CCCCN2)C1 + Cc1c(S(C)(=O)=O)c(-c2cc(F)cc(N3CCN(c4ccc(NS(=O)(=O)c5ccc(NC(CCN6CCC(C(=O)OCCCP(=O)(O)O)CC6)CSc6ccccc6)c(S(=O)(=O)C(F)(F)F)c5)cc4)CC3)c2)c(-c2ccc(Cl)cc2)n1C(C)C", "EXPERIMENTAL SYSTEM": "OVCAR-5 complex spheroid (HUVEC/MSC), viability % T/C", "LABEL": "met"}
{"COMPOUND": "C=C(F)C(=O)N1CCN(c2nc(OCC3CCCN3C)nc3c2CCN(c2cccc4cccc(Cl)c24)C3)CC1CC#N (centres undefined) + CNC(C)C(=O)NC1CN(S(=O)(=O)c2cccc(S(=O)(=O)N3CCC4CCC(C(=O)NC(c5ccccc5)c5ccccc5)N4C(=O)C(NC(=O)C(C)NC)C3)c2)CCC2CCC(C(=O)NC(c3ccccc3)c3ccccc3)N2C1=O", "EXPERIMENTAL SYSTEM": "OVCAR-5 complex spheroid (HUVEC/MSC), viability % T/C", "LABEL": "met"}
{"COMPOUND": "COc1c(OCCCN2CCOCC2)ccc2c3n(c(=NC(=O)c4cnc(N)nc4)nc12)CCN3 + CNC(C)C(=O)NC1CN(S(=O)(=O)c2cccc(S(=O)(=O)N3CCC4CCC(C(=O)NC(c5ccccc5)c5ccccc5)N4C(=O)C(NC(=O)C(C)NC)C3)c2)CCC2CCC(C(=O)NC(c3ccccc3)c3ccccc3)N2C1=O", "EXPERIMENTAL SYSTEM": "OVCAR-5 complex spheroid (HUVEC/MSC), viability % T/C", "LABEL": "met"}

Input: Please check: viability, T/C for CCN1CCN(Cc2ccc(Nc3ncc(F)c(-c4cc(F)c5nc(C)n(C(C)C)c5c4)n3)nc2)CC1 + CNC(C)C(=O)NC1CN(S(=O)(=O)c2cccc(S(=O)(=O)N3CCC4CCC(C(=O)NC(c5ccccc5)c5ccccc5)N4C(=O)C(NC(=O)C(C)NC)C3)c2)CCC2CCC(C(=O)NC(c3ccccc3)c3ccccc3)N2C1=O , strictly under 80% or not?
Output: met

Input: Please check: viability, T/C for C#Cc1c(F)ccc2cc(O)cc(-c3ncc4c(N5CC6CCC(C5)N6)nc(OCC56CCCN5CC(F)C6)nc4c3F)c12 (centres undefined) + CNC(C)C(=O)NC1CN(S(=O)(=O)c2cccc(S(=O)(=O)N3CCC4CCC(C(=O)NC(c5ccccc5)c5ccccc5)N4C(=O)C(NC(=O)C(C)NC)C3)c2)CCC2CCC(C(=O)NC(c3ccccc3)c3ccccc3)N2C1=O , strictly under 80% or not?
Output: met
